Read-out: Urokinase-type plasminogen activator receptor (uPAR), PLAUR (gene 5329)
TEST: BSK_CASM3C_uPAR: BioMAP Diversity Plus: CASM3C Assay for Urokinase-type plasminogen activator receptor (uPAR) Biomarker Activity (AID 2283054);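 further: cell-surface uPAR protein level quantified by ELISA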
CONDITION SUMMARY: primary human coronary artery smooth muscle cells; actives raise or lower the signal
Calls of active or inactive are those of the source. How the source made its calls: active means hit-call score of the fitted dose curve at least 0.9, where 1 is the maximum; inactive means score below 0.9.
Labels: Yes for active, No for inactive

1. O=C(CCl)c1ccccc1 = Yes
2. Cc1ccc(OP(=O)(Oc2ccc(C)cc2)Oc2ccc(C)cc2)cc1 (tested in a mixture with another compound) = Yes
3. Clc1ccc(-c2ccccc2)cc1 = No
4. O=C1C=CC(=O)C=C1 = No
5. CCCC[N+](CCCC)(CCCC)CCCC = No
6. CCCOC(=O)c1ccccc1C(=O)OCCC = Yes
7. CC1(C)[C@H](C(=O)O[C@H](C#N)c2cccc(Oc3ccccc3)c2)[C@@H]1C=C(Br)Br = No
8. CC(C)COP(=O)(OCC(C)C)OCC(C)C = No
9. O=[N+]([O-])C=Cc1ccccc1 = Yes
10. N#CCCCCC#N = No
11. O=c1[nH]c(Cl)c(Cl)cc1Cl = No
12. O=[N+]([O-])O = No
13. CCCCCCCCCCCC#N = No
14. Nc1ccc(-c2ccc(N)c(N)c2)cc1N = No

Where these numbers come from: PubChem BioAssay (EPA / NIEHS)
